Catalogue of compounds with associated Population Normal (%)
Test system: U2OS
Assay: Multiplex assay against U2OS
Type: toxicity, cell-based
Conditions: human, 48 h, 10 µM, compound concentration 10 uM, replicate 2
State the value, then name its unit.

Smiles input | Population Normal (%)
CC(C)(C)NC[C@H](O)COc1nsnc1N1CCOCC1 | 98%
CC(C)c1noc(N2CCC(COc3ccc(-c4ccc(S(C)(=O)=O)cc4)nc3)CC2)n1 | 97%
Cc1c[nH]c2nccc(Oc3c(F)cc(Nc4cc(Cl)nc(N)n4)cc3F)c12 | 91%
COc1ccc(-c2ccc3ncc4c(c3c2)n(-c2ccc(N3CCNCC3)c(C(F)(F)F)c2)c(=O)n4C)cn1.O=C(O)/C=C\C(=O)O | 32%
Cc1ccc(C)c(Oc2ccncc2C(=O)N2CCN(C3CC3)c3ccccc32)c1 | 98%

Summary for this compound, CCCSc1nc(N[C@@H]2C[C@H]2c2ccc(F)c(F)c2)c2nnn([C@@H]3C[C@H](OCCO)[C@@H](O)[C@H]3O)c2n1 : Population Normal (%) is 88%

Summary for this compound, CC(C)NC(=O)N1CC[C@H](NC2=Nc3cc(F)ccc3N(CC(F)F)c3ccc(Cl)cc32)C1 : Population Normal (%) is 86%

Summary for this compound, O=c1cc(N2CCOCC2)oc2c(-c3cccc4c3sc3ccccc34)cccc12 : Population Normal (%) is 87%

----------
Catalogue of compounds with associated Population Pyknosed Nuclei (%)
System: Fibroblast
Test: Multiplex assay against human fibroblast
Type: toxicity, cell-based
Conditions: 48 h, 1 µM, compound concentration 1 uM, replicate 2
Report the figure in % without appending any unit label.

See these solved cases before continuing.
Compound | Target or system | Population Pyknosed Nuclei (%)
CC(C)OC(=O)N1CCC(Oc2ncnc3c2cnn3-c2ccc(S(C)(=O)=O)cc2F)CC1 | Fibroblast | 0
CC1=C(C(=O)Nc2cc3cn[nH]c3cc2F)C(c2ccc(C(F)(F)F)cc2)CC(=O)N1 (configuration not stated) | Fibroblast | 3
Cl.O=C(O)c1cc(-c2ccc(C3CCNCC3)cc2)c2ccc(-c3ccc(C(F)(F)F)cc3)cc2c1 | Fibroblast | 1
CN1CCN(Cc2ccc(Nc3ncc(Cl)c(Nc4ccccc4S(=O)(=O)N(C)C)n3)cc2)CC1 | Fibroblast | 2
COc1cc(Nc2nccc(-c3cnn4nc(OC)ccc34)n2)cc(C(F)(F)F)c1 | Fibroblast | 4

Summary for this compound, CCc1nn(CCCN2CCN(c3cccc(Cl)c3)CC2)c(=O)n1CCOc1ccccc1.Cl [NEFAZODONE HYDROCHLORIDE] : Population Pyknosed Nuclei (%) is 1

Summary for this compound, C[C@]12CC[C@@H]3c4ccc(O)cc4CC[C@H]3[C@@H]1CC[C@@H]2O : Population Pyknosed Nuclei (%) is 1

----------
Catalogue of compounds with associated Population Hoechst High Intensity Objects (%)
Tested on: HEK-293T
Test: Multiplex assay against HEK293T
Type: toxicity, cell-based
Conditions: human, 12 h, 10 µM, compound concentration 10 uM, replicate 1
Report the figure in % without appending any unit label.

See these solved cases before continuing.
Compound | Observed measurement
COc1cc2ncn(-c3cc(OCc4ccccc4C(F)(F)F)c(C(N)=O)s3)c2cc1OC [GW843682X] | 14
C[C@]12CC[C@@H]3c4ccc(O)cc4CC[C@H]3[C@@H]1CC[C@@H]2O | 15
CC(C)NC(=O)N1CC[C@H](NC2=Nc3cc(F)ccc3N(CC(F)F)c3ccc(Cl)cc32)C1 | 22
COc1cc(Nc2nccc(-c3cnn4nc(OC)ccc34)n2)cc(C(F)(F)F)c1 | 24

Summary for this compound, COc1ccccc1CN[C@H]1C2CCN(CC2)[C@H]1C(c1ccccc1)c1ccccc1 : Population Hoechst High Intensity Objects (%) is 13

Summary for this compound, O=c1cc(N2CCOCC2)oc2c(-c3cccc4c3sc3ccccc34)cccc12 : Population Hoechst High Intensity Objects (%) is 14
